assay: viability loss with induced miR-34 in A549 – imaging, A549 dox-inducible miR-34, nuclei and caspase counts, primary screen (AID 1347080); conditions: A549 miR-34 inducible, Hoechst nuclei count, 48 h; stronger effect = lower value; cell number ratio, induced over uninduced
For each of the molecules below, state its fold change.
Form: value (number only, do not type unit).

query: Determine its reported fold change: NS(=O)(=O)c1ccc(-n2nc(C(F)(F)F)cc2-c2ccc(Cl)cc2)cc1
result: 1.1

query: Determine its reported fold change: Cc1c(C(=O)Nc2ccc(N3CCC(N4CCOCC4)CC3)c(C#N)c2)cnn1-c1ccc(Cl)cc1
result: 0.979

query: Determine its reported fold change: Cc1c(OCC(F)(F)F)ccnc1C[S@@](=O)c1nc2ccccc2[nH]1
result: 0.977

query: Determine its reported fold change: O=C(Nc1n[nH]c(Cc2ccccc2)n1)N1CCN(c2ncncn2)CC1
result: 0.914

query: Determine its reported fold change: Cc1cc(OCCCS(C)(=O)=O)cc(C)c1-c1cccc(COc2ccc3c(c2)OCC3CC(=O)O)c1 (centres undefined)
result: 0.928

query: Determine its reported fold change: NC(=O)Nc1cc(-c2cccc(F)c2)sc1C(=O)NC1CCCNC1 (centres undefined)
result: 1.01

query: Determine its reported fold change: CC1CC[C@]2(C(=O)O)CC[C@]3(C)C(=CC[C@H]4[C@@]5(C)CC(O)C(O)[C@@](C)(CO)[C@@H]5CC[C@]43C)[C@H]2C1C (some centres undefined)
result: 0.88

query: Determine its reported fold change: CCC(C)C(=O)OC1CCC=C2C=CC(C)C(CCC3CC(O)CC(=O)O3)[C@H]21 (some centres undefined)
result: 0.904

query: Determine its reported fold change: O=c1ccn(C2OC(CO)C(O)C2O)c(=O)[nH]1 (centres undefined)
result: 0.86

###

experiment: growth inhibition, MDA-MB-436, cell-based, BGB or cisplatin combos, synergistic combos for chromothripsis tumors (AID 1671458); settings: MDA-MB-436 breast carcinoma growth inhibition, drug combinations; measured here: BGB combination; at 0.5 µM; stronger effect = higher value;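 further: cells exposed for 96 hours; 0% = vehicle DMSO and 100% = killing by high DMSO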
Non-standard residues stand in square brackets, D forms with d. Residues, ends and D or L forms follow the SMILES beside them. Dolaproine = CO[C@@H]([C@@H]1CCCN1)[C@@H](C)C(=O)O; Dil = CC[C@H](C)[C@H](NC)[C@@H](CC(=O)O)OC; NMeV = CN[C@H](C(=O)O)C(C)C
measure_name: inhibition (%)
Number only, in %; omit the unit.

query: Determine its reported inhibition: CC(C)(C#N)c1ccc(N2C(=O)OCc3cnc4ccc(-c5cnc6ccccc6c5)cc4c32)cc1
result: -28.5

query: Determine its reported inhibition: C=C1C(=O)O[C@@H]2C=C(C)CCC=C(C)CC[C@@H]12
result: 1.65

query: Determine its reported inhibition: O=C1N=c2ccccc2=C1c1c(O)[nH]c2ccccc12
result: -2.01

query: Determine its reported inhibition: Nc1cc(F)ccc1NC(=O)/C=C/c1cnn(C/C=C/c2ccccc2)c1
result: -13.1

query: Determine its reported inhibition: CC[C@H](C)[C@@H]([C@@H](CC(=O)N1CCC[C@H]1[C@H](OC)[C@@H](C)C(=O)N[C@@H](Cc1ccccc1)C(=O)O)OC)N(C)C(=O)[C@@H](NC(=O)[C@@H](NC)C(C)C)C(C)C (H-[NMeV]V[Dil][Dolaproine]F-OH)
result: 39.8

query: Determine its reported inhibition: Cc1ccc(NC(=O)CCCCCC(=O)Nc2ccccc2N)cc1
result: -25.9

query: Determine its reported inhibition: Cc1cc(C=CC#N)cc(C)c1Nc1ccnc(Nc2ccc(C#N)cc2)n1
result: -6.06

query: Determine its reported inhibition: COc1ccc(-c2nc(-c3cc(C(F)(F)F)cc(C(F)(F)F)c3)n(Cc3ccc(C(N)=O)cc3)c2-c2ccc(OC)cc2)cc1
result: -10.8

query: Determine its reported inhibition: Nc1ccccc1NC(=O)c1cnccn1
result: -5.5

###

experiment: antimalarial activity against Dd2 strain (AID 2302);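 further: 0% = DMSO untreated growth and 100% = chloroquine plus artemisinin killed control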; conditions: P. falciparum Dd2 in RBCs, LDH growth readout, 72 h; at 2 µM
The source made the active and inactive calls.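 How the source made its calls: active means growth inhibition above 50% at the single 2 µM test dose, taken to imply half-maximal potency below 2 µM; inactive means the rest.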
Reply using exactly one outcome from T = active, F = inactive

query: Please let me know the test result on file for Cc1cc(C)c2c(c1)C(=NO)CCN2 .
result: F

query: Please let me know the test result on file for COc1cc(C=C(C2=NC(=O)CS2)c2nc3cccnc3n2C)ccc1O .
result: F

query: Please let me know the test result on file for O=[N+]([O-])c1ccc(C=NO)nc1 .
result: T

query: Please let me know the test result on file for ON=C1CCc2cc(-c3nc(-c4ccc(OCCN5CCCCC5)cc4)[nH]c3-c3ccncc3)ccc21 .
result: T

query: Please let me know the test result on file for Nc1ccc(-c2nc3cc(C4=N[C@H]5CCCC[C@H]5N4)ccc3o2)cc1[N+](=O)[O-] .
result: F

query: Please let me know the test result on file for Nc1c2c(nc3ccccc13)C(=Cc1ccc(O)cc1)CCC2 .
result: F

query: Please let me know the test result on file for Oc1c(C=Nn2cnnc2)sc2ccccc12 .
result: T

query: Please let me know the test result on file for O=[N+]([O-])c1ccc(Nc2nc(NN=Cc3cc(Cl)cc(Cl)c3O)nc(Nc3ccccc3)n2)cc1 .
result: T

query: Please let me know the test result on file for C[C@@H]([C@@H](CCCc1ccc(Cl)cc1)C(=O)N[C@H](C(=O)Nc1cccnc1)C(C)(C)C)N(O)C=O .
result: T

query: Please let me know the test result on file for Nc1cc(C=Cc2ccc(O)cc2)nc2ccccc12 .
result: F

###

assay: drug combination growth inhibition, ovarian cancer – cell-based, oncology-focused library, rucaparib conditional, profiling panel (AID 1508598); settings: patient-derived ovarian cancer cells, CellTiter-Glo viability, 144 h; at 5 µM; OCI-P5x cells; with rucaparib 20 µM; 100% = cells with rucaparib alone
Active and inactive are the calls of the source.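 The calls were made as follows: active = normalized viability below 100% at a tested concentration; inactive = the rest.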
Reply using exactly one outcome from Y for active, N for inactive

query: Please let me know the test result on file for Cc1cc([N+](=O)[O-])ccc1NS(=O)(=O)c1cc(Cl)ccc1Cl .
result: Y

query: Please let me know the test result on file for Nc1nc(F)nc2c1ncn2[C@H]1O[C@H](CO)[C@@H](O)[C@@H]1O .
result: N

query: Please let me know the test result on file for COc1cccc(-c2cc(F)ccc2[C@H]2Cc3nc(N)nc(C)c3C(=O)N2)n1 .
result: Y

query: Please let me know the test result on file for C[C@H]1C[C@H]2[C@@H]3CCC4=CC(=O)C=C[C@]4(C)[C@@H]3C(=O)C[C@]2(C)[C@]1(O)C(=O)CO .
result: N

query: Please let me know the test result on file for CC(=O)[C@]1(O)Cc2c(O)c3c(c(O)c2[C@H](O[C@H]2C[C@H](N)[C@H](O)[C@H](C)O2)C1)C(=O)c1ccccc1C3=O .
result: Y

query: Please let me know the test result on file for COc1cc(Br)c(Nc2nc(-c3c(C)nc4ncccn34)cs2)c(Br)c1 .
result: Y

query: Please let me know the test result on file for CC1(C)C=C(CN2C/C(=C/c3ccc(F)cc3)C(=O)/C(=C/c3ccc(F)cc3)C2)C(C)(C)N1O .
result: Y

query: Please let me know the test result on file for CO[C@H]1C[C@H]2CC[C@@H](C)[C@@](O)(O2)C(=O)C(=O)N2CCCC[C@H]2C(=O)O[C@H]([C@H](C)C[C@@H]2CC[C@H](OP(C)(C)=O)[C@H](OC)C2)CC(=O)[C@H](C)/C=C(\C)[C@@H](O)[C@@H](OC)C(=O)[C@H](C)C[C@H](C)/C=C/C=C/C=C/1C .
result: Y

query: Please let me know the test result on file for N[C@@H]1CCCN(c2c(/C=C3\SC(=O)NC3=O)cccc2-c2ccccc2)C1 .
result: Y

query: Please let me know the test result on file for Cc1cc(C)c(S(=O)(=O)n2cc(C)cc2C)c(C)c1 .
result: N

query: Please let me know the test result on file for O=c1[nH]c(=O)n([C@@H]2C[C@H](O)[C@@H](CO)O2)cc1F .
result: Y

query: Please let me know the test result on file for CCC1=CC2CN(C1)Cc1c([nH]c3ccccc13)[C@@](C(=O)OC)(c1cc3c(cc1OC)N(C)[C@H]1[C@@](O)(C(=O)OC)[C@H](OC(C)=O)[C@]4(CC)C=CCN5CC[C@@]31[C@H]54)C2 (some centres undefined) .
result: Y

query: Please let me know the test result on file for Cc1[nH]c(C=C2C(=O)Nc3ccc(S(=O)(=O)Cc4c(Cl)cccc4Cl)cc32)c(C)c1C(=O)N1CCC[C@@H]1CN1CCCC1 .
result: Y

query: Please let me know the test result on file for CCCCCOC(=O)Nc1nc(=O)n([C@@H]2O[C@H](C)[C@@H](O)C2O)cc1F (some centres undefined) .
result: N
